target: USP34 (UniProt Q70CQ2); test: log2 ratio of Biotin-Ahx-Ub-VS probe labelling (fragment/DMSO); higher = less target engagement (more negative = stronger competition), active = hit call of the paper (q ≤ 0.05, log2 ratio ≤ -1); conditions: compound concentration: 200 uM; treatment time: 3 h
Sequence (Q70CQ2 whole entry, the tested form may be a part): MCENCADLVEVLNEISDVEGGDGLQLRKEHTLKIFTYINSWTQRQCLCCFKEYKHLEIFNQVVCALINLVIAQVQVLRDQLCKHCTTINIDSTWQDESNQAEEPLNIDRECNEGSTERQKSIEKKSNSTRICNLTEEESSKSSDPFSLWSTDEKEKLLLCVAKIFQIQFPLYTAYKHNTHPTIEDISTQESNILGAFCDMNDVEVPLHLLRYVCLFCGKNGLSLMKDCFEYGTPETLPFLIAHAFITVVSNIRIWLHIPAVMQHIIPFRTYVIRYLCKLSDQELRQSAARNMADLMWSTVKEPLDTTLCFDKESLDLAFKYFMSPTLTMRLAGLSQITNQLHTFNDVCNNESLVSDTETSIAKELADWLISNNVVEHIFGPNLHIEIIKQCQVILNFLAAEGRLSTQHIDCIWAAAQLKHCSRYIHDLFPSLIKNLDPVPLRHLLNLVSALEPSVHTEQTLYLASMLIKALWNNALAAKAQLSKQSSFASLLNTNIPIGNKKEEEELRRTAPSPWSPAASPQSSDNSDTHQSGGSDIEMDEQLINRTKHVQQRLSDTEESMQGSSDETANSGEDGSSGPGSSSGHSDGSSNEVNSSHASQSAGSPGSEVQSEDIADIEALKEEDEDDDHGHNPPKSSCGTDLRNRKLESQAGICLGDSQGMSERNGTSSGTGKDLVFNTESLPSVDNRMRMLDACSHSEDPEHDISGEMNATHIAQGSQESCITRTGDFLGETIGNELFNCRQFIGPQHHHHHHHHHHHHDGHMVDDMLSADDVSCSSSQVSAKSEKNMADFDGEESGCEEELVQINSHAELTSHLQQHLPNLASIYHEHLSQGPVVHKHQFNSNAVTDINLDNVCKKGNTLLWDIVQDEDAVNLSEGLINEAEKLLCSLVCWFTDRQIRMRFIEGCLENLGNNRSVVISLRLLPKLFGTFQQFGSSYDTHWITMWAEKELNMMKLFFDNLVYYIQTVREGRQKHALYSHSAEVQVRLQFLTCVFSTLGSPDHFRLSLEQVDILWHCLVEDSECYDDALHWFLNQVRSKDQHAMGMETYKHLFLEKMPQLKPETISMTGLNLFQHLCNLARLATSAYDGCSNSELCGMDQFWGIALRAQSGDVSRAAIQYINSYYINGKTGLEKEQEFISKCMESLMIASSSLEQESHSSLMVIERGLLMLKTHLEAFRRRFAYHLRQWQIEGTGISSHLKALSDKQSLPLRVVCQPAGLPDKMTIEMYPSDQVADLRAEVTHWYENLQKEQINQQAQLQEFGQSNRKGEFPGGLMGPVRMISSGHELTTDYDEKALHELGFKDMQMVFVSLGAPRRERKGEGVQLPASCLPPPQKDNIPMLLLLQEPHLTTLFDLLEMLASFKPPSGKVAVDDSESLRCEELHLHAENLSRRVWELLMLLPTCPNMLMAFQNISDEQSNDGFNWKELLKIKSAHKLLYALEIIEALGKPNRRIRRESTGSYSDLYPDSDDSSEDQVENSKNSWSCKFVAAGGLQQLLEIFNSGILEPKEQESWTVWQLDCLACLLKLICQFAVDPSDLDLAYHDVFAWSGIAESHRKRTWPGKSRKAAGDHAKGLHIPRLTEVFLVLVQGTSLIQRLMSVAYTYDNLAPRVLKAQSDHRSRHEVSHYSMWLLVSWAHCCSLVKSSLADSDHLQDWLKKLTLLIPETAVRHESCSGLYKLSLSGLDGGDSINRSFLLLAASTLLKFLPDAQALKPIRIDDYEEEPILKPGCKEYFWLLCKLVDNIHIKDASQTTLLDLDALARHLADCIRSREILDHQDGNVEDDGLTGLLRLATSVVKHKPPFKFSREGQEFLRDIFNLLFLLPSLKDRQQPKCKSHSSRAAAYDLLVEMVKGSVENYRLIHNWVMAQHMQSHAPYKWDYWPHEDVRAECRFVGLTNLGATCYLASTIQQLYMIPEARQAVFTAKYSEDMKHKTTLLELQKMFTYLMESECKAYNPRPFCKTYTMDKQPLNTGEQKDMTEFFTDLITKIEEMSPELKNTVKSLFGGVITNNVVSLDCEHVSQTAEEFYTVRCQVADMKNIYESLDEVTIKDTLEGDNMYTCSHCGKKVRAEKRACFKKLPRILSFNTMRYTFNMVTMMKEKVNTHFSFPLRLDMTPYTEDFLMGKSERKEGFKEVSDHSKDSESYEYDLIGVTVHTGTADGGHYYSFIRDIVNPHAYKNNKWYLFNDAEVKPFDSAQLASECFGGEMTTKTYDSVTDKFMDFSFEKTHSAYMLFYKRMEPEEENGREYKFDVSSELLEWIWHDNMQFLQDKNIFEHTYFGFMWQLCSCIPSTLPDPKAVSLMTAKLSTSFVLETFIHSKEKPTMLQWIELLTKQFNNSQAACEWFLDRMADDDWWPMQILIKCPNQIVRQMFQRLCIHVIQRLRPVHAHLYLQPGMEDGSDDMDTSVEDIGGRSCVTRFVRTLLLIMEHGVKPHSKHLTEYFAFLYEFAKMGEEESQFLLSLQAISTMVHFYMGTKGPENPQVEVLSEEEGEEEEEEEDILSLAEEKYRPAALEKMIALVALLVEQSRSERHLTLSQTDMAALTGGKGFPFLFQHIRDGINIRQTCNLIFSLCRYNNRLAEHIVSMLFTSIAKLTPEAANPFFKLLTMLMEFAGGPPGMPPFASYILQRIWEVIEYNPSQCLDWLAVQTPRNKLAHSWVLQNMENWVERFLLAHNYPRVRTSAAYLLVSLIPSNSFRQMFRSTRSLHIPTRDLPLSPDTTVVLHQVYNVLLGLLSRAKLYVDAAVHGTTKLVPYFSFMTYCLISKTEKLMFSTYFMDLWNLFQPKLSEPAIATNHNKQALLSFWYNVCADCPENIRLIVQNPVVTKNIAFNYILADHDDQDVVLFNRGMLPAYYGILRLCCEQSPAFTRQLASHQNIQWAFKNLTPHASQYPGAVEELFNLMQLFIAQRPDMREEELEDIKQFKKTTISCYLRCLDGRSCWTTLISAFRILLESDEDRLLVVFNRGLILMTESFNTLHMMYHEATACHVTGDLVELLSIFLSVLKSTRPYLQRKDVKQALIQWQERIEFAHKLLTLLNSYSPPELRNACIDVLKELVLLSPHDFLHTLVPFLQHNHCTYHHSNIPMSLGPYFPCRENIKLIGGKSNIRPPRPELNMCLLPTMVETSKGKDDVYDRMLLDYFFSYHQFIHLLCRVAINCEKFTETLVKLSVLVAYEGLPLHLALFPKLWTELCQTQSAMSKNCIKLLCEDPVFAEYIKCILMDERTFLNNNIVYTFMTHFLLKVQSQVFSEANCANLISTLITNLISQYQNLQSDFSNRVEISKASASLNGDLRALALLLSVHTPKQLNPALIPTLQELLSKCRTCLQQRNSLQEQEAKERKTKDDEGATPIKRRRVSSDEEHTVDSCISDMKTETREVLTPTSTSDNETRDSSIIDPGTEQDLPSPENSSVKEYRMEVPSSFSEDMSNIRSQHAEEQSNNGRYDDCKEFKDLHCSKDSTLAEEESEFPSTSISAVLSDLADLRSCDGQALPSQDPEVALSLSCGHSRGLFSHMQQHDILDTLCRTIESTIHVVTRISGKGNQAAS
Recorded Metric: log2 ratio of Biotin-Ahx-Ub-VS probe labelling

Task item: Specify measured log2 ratio of Biotin-Ahx-Ub-VS probe labelling for `O=C(CCl)N1c2ccccc2NC(=O)C12CCCC2` .
Reply: -0.193 (inactive)

Task item: Provide log2 ratio of Biotin-Ahx-Ub-VS probe labelling value for the following compound: NC(=O)C(Cc1ccccc1)NC(=O)CCl (stereo not drawn)
Reply: -0.217 (inactive)

Task item: Complete the entry with log2 ratio of Biotin-Ahx-Ub-VS probe labelling for Cc1cc(C2CCCN2C(=O)CCl)nn1C.Cl (stereo not drawn)
Reply: -0.179 (inactive)

Task item: Please supply the value of reported log2 ratio of Biotin-Ahx-Ub-VS probe labelling for the item `O=C(CCl)NCCc1ccc2c(c1)OCCO2`
Reply: -0.523 (inactive)

Task item: Look up and state reported log2 ratio of Biotin-Ahx-Ub-VS probe labelling for `O=C(CCl)Nc1ccccc1C(F)(F)F`
Reply: -0.296 (inactive)

Task item: Identify measured log2 ratio of Biotin-Ahx-Ub-VS probe labelling corresponding to `Cc1ccccc1CN(C)C(=O)CCl`
Reply: -0.547 (inactive)

Task item: Given O=C(CCl)N1CCCC2CCCCC21 (stereo not drawn) , respond with its log2 ratio of Biotin-Ahx-Ub-VS probe labelling.
Reply: -0.14 (inactive)

Task item: Item `O=C(CCl)NCC(=O)N1CCCC1` : provide log2 ratio of Biotin-Ahx-Ub-VS probe labelling
Reply: 0.0366 (inactive)
